These data points were gathered from ChEMBL document CHEMBL2203180.

test: Induction of nitric oxide release in 0.1 mM phosphate buffer solution at pH 7.4 assessed as nitrate/nitrite level after 120 mins by Griess assay; type: physicochemical; settings: pH 7.4, 2 h
VALUE KIND: Activity (µmol/L)

COc1cc2c(cc1OCCO[N+](=O)[O-])C(=O)C(C)OC2 (stereo unspecified) :: 8.1
COc1cc2c(cc1OCC(=O)OCCCCO[N+](=O)[O-])COC(C)C2=O (stereo unspecified) :: 11.69
COc1cc2c(cc1OCCCCO[N+](=O)[O-])C(=O)C(C)OC2 (stereo unspecified) :: 6.09
COc1cc2c(cc1OCC(=O)OCCO[N+](=O)[O-])C(=O)C(C)OC2 (stereo unspecified) :: 12.1
COc1cc2c(cc1OCCO[N+](=O)[O-])COC(C)C2=O (stereo unspecified) :: 12.27

(P) COc1cc2c(cc1OCCCO[N+](=O)[O-])C(=O)C(C)OC2 (stereo unspecified)
(Q) COc1ccc2c(c1OCCO[N+](=O)[O-])COC(C)C2=O (stereo unspecified)
Lower value for measured Activity? Options: P , Q Your answer should be the label of the entry you select. P
(P: 7.01 µmol/L, Q: 14.61 µmol/L)

----------
experiment: Induction of nitric oxide release in 0.1 mM phosphate buffer solution at pH 7.4 assessed as nitrate/nitrite level after 100 mins by Griess assay; assay type: physicochemical; details: pH 7.4, 100 min
VALUE KIND: Activity (µmol/L)

For orientation, consider the following solved cases.
COc1cc2c(cc1OCCCO[N+](=O)[O-])C(=O)C(C)OC2 (configuration not stated) :: 6.89
COc1ccc2c(c1OCCCCO[N+](=O)[O-])COC(C)C2=O (configuration not stated) :: 4.03

(a) COc1cc2c(cc1OCC(=O)OCCCO[N+](=O)[O-])COC(C)C2=O (configuration not stated)
(b) COc1ccc2c(c1OCC(=O)OCCCO[N+](=O)[O-])COC(C)C2=O (configuration not stated)
(c) COc1cc2c(cc1OCC(=O)OCCCO[N+](=O)[O-])C(=O)C(C)OC2 (configuration not stated)
Order the items by recorded Activity; the first position goes to the largest value. The response must list the labels following the requested ordering. a, c, b

(a) COc1cc2c(cc1OCCCO[N+](=O)[O-])COC(C)C2=O (configuration not stated)
(b) COc1cc2c(cc1OCC(=O)OCCCCO[N+](=O)[O-])COC(C)C2=O (configuration not stated)
Lower value for measured Activity? Options: a , b Your answer should be the label of the entry you select. b
(b: 11.67 µmol/L, a: 18.81 µmol/L)

----------
experiment: Induction of nitric oxide release in 0.1 mM phosphate buffer solution at pH 7.4 assessed as nitrate/nitrite level after 120 mins by Griess assay; format: physicochemical; settings: pH 7.4, 2 h
VALUE KIND: Activity (µmol/L)

For orientation, consider the following solved cases.
COc1cc2c(cc1OCC(=O)OCCCCO[N+](=O)[O-])C(=O)C(C)OC2 (configuration not stated) :: 9.02
COc1cc2c(cc1OCC(=O)OCCCO[N+](=O)[O-])C(=O)C(C)OC2 (configuration not stated) :: 8.6

(P) COc1ccc2c(c1OCC(=O)OCCCO[N+](=O)[O-])COC(C)C2=O (configuration not stated)
(Q) COc1ccc2c(c1OCC(=O)OCCCCO[N+](=O)[O-])COC(C)C2=O (configuration not stated)
(R) COc1cc2c(cc1OCCCO[N+](=O)[O-])COC(C)C2=O (configuration not stated)
Order the items by recorded Activity; the first position goes to the largest value. The response must list the labels following the requested ordering. R, Q, P
(R: 18.95 µmol/L, Q: 6.59 µmol/L, P: 4.01 µmol/L)

(1) COc1ccc2c(c1OCCCCO[N+](=O)[O-])COC(C)C2=O (configuration not stated)
(2) COc1cc2c(cc1OCC(=O)OCCCO[N+](=O)[O-])COC(C)C2=O (configuration not stated)
Lower value for measured Activity? Options: 1 , 2 Your answer should be the label of the entry you select. 1

----------
assay: Induction of nitric oxide release in 0.1 mM phosphate buffer solution at pH 7.4 assessed as nitrate/nitrite level after 30 mins by Griess assay; format: physicochemical; conditions: pH 7.4, 0.5 h
VALUE KIND: Activity (µmol/L)

For orientation, consider the following solved cases.
COc1cc2c(cc1OCCCCO[N+](=O)[O-])COC(C)C2=O (stereo not drawn) :: 5.17
COc1cc2c(cc1OCCCO[N+](=O)[O-])C(=O)C(C)OC2 (stereo not drawn) :: 5.59
COc1cc2c(cc1OCCO[N+](=O)[O-])COC(C)C2=O (stereo not drawn) :: 10.25
COc1ccc2c(c1OCC(=O)OCCO[N+](=O)[O-])COC(C)C2=O (stereo not drawn) :: 10.84

(I) COc1cc2c(cc1OCC(=O)OCCCO[N+](=O)[O-])COC(C)C2=O (stereo not drawn)
(II) COc1cc2c(cc1OCCO[N+](=O)[O-])C(=O)C(C)OC2 (stereo not drawn)
(III) COc1ccc2c(c1OCC(=O)OCCCO[N+](=O)[O-])COC(C)C2=O (stereo not drawn)
(IV) COc1ccc2c(c1OCCCCO[N+](=O)[O-])COC(C)C2=O (stereo not drawn)
Order the items by recorded Activity; the first position goes to the largest value. The response must list the labels following the requested ordering. I, II, IV, III

----------
assay: Induction of nitric oxide release in 0.1 mM phosphate buffer solution at pH 7.4 assessed as nitrate/nitrite level after 10 mins by Griess assay; format: physicochemical; conditions: pH 7.4, 10 min
VALUE KIND: Activity (µmol/L)

For orientation, consider the following solved cases.
COc1cc2c(cc1OCCCO[N+](=O)[O-])COC(C)C2=O (stereo not drawn) :: 17.45
COc1cc2c(cc1OCC(=O)OCCCO[N+](=O)[O-])C(=O)C(C)OC2 (stereo not drawn) :: 5.65
COc1cc2c(cc1OCC(=O)OCCO[N+](=O)[O-])C(=O)C(C)OC2 (stereo not drawn) :: 8.43
COc1ccc2c(c1OCCO[N+](=O)[O-])COC(C)C2=O (stereo not drawn) :: 1.51
COc1cc2c(cc1OCCO[N+](=O)[O-])COC(C)C2=O (stereo not drawn) :: 10.12
COc1ccc2c(c1OCCCO[N+](=O)[O-])COC(C)C2=O (stereo not drawn) :: 7.42
COc1cc2c(cc1OCC(=O)OCCCCO[N+](=O)[O-])COC(C)C2=O (stereo not drawn) :: 7.42
COc1ccc2c(c1OCC(=O)OCCO[N+](=O)[O-])COC(C)C2=O (stereo not drawn) :: 10.62
COc1ccc2c(c1OCC(=O)OCCCO[N+](=O)[O-])COC(C)C2=O (stereo not drawn) :: 0.84
COc1cc2c(cc1OCC(=O)OCCCCO[N+](=O)[O-])C(=O)C(C)OC2 (stereo not drawn) :: 5.73

(A) COc1cc2c(cc1OCC(=O)OCCCO[N+](=O)[O-])COC(C)C2=O (stereo not drawn)
(B) COc1ccc2c(c1OCCCCO[N+](=O)[O-])COC(C)C2=O (stereo not drawn)
Kindly identify which of A and B has the larger recorded Activity value. Your answer should be the label of the entry you select. A

----------
assay: Induction of nitric oxide release in 0.1 mM phosphate buffer solution at pH 7.4 assessed as nitrate/nitrite level after 80 mins by Griess assay; type: physicochemical; conditions: pH 7.4, 80 min
VALUE KIND: Activity (µmol/L)

COc1cc2c(cc1OCCCCO[N+](=O)[O-])C(=O)C(C)OC2 (stereo not drawn) :: 5.93
COc1cc2c(cc1OCCCCO[N+](=O)[O-])COC(C)C2=O (stereo not drawn) :: 7.85
COc1ccc2c(c1OCC(=O)OCCCCO[N+](=O)[O-])COC(C)C2=O (stereo not drawn) :: 6.27

(P) COc1cc2c(cc1OCC(=O)OCCCCO[N+](=O)[O-])C(=O)C(C)OC2 (stereo not drawn)
(Q) COc1ccc2c(c1OCCCCO[N+](=O)[O-])COC(C)C2=O (stereo not drawn)
Lower value for measured Activity? Options: P , Q Your answer should be the label of the entry you select. Q
(Q: 3.84 µmol/L, P: 8.69 µmol/L)

----------
assay: Induction of nitric oxide release in 0.1 mM phosphate buffer solution at pH 7.4 assessed as nitrate/nitrite level after 60 mins by Griess assay; format: physicochemical; conditions: pH 7.4, 1 h
VALUE KIND: Activity (µmol/L)

For orientation, consider the following solved cases.
COc1cc2c(cc1OCC(=O)OCCO[N+](=O)[O-])COC(C)C2=O (stereo unspecified) :: 8.64
COc1cc2c(cc1OCC(=O)OCCCCO[N+](=O)[O-])COC(C)C2=O (stereo unspecified) :: 8.72
COc1cc2c(cc1OCCCO[N+](=O)[O-])C(=O)C(C)OC2 (stereo unspecified) :: 6.29
COc1cc2c(cc1OCCCCO[N+](=O)[O-])COC(C)C2=O (stereo unspecified) :: 7.72

(1) COc1cc2c(cc1OCCO[N+](=O)[O-])C(=O)C(C)OC2 (stereo unspecified)
(2) COc1cc2c(cc1OCC(=O)OCCCO[N+](=O)[O-])COC(C)C2=O (stereo unspecified)
Kindly identify which of 1 and 2 has the larger recorded Activity value. Your answer should be the label of the entry you select. 2
(2: 11.91 µmol/L, 1: 6.04 µmol/L)
